Assay: NCI Yeast Anticancer Drug Screen. Data for the mec2-1 strain (AID 157)
Conditions: S. cerevisiae mec2-1 strain, at 50.0 µM, stronger effect = higher value
The panel holds about 79,000 compounds, 15% with a hit somewhere; the sample as a whole holds those more often.
Assay Metric: growth inhibition (%)
One number for each entry, in %.

Use these answered entries as a reference point.
[[record]]
molecule = "NC(=O)C1CCN(S(=O)(=O)c2ccccc2)CC1"
assay_metric = "growth inhibition"
measured = -9.1

[[record]]
molecule = "c1ccc2c(c1)OP1(=NP3(=NP4(=NP5(=N1)Oc1ccccc1-c1ccccc1O5)Oc1ccccc1-c1ccccc1O4)Oc1ccccc1-c1ccccc1O3)Oc1ccccc1-2"
assay_metric = "growth inhibition"
measured = 6.3

[[record]]
molecule = "O=[N+]([O-])c1ccccc1-c1ccccc1[N+](=O)[O-]"
assay_metric = "growth inhibition"
measured = 16.3

[[record]]
molecule = "CC1CCC(C(C)(C)O)CC1O (centres undefined)"
assay_metric = "growth inhibition"
measured = 2.05

[[record]]
molecule = "Nc1cccc(OCC(O)CN2CCN(c3ccccc3)CC2)c1 (centres undefined)"
assay_metric = "growth inhibition"
measured = 8.6

[[record]]
molecule = "Brc1cccc(-c2nnc(-c3ccc4ccccc4c3)o2)c1"
assay_metric = "growth inhibition"
measured = -29.5

[[record]]
molecule = "C1CC2(CC3(C1)SCCS3)SCCS2"
assay_metric = "growth inhibition"
measured = 7.2

[[record]]
molecule = "Cn1c[n+](-c2ccccc2)c([S-])n1"
assay_metric = "growth inhibition"
measured = 5.05


Fill in growth inhibition for each of the 4 molecules listed.
1. CN(C)CC(O)CNC(=O)Nc1ccccc1 (centres undefined)
2. Cc1nn(C(=O)c2ccccn2)c(-c2ccccc2)c1N=Nc1ccc(S(=O)(=O)Nc2ncccn2)cc1
3. CCN(CC)CC(C)C(O)(Cc1ccccc1)c1ccc(Cl)cc1 (centres undefined)
4. CC1(C)OC2C(=O)O[C@H](CO)C2O1 (some centres undefined)

output:
1. 14.2
2. -6
3. 17.6
4. 9.5

Fill in growth inhibition for each of the 3 molecules listed.
1. C/C(N=NC(=S)N1CCCCC1)=C1\C=CC=CN1O
2. CCC(=N\NC(=S)NC)/C(C)=N\NC(=S)NC
3. O=C(O)/C=C/C(=O)Nc1cccc2c1Cc1ccccc1-2

output:
[-6.8, -6.4, 9]

Fill in growth inhibition for each of the 4 molecules listed.
1. CC(=N\N)/C(C)=N/N=C(C)/C(C)=N/N=C(C)/C(C)=N/N=C(C)/C(C)=N/N
2. CCc1nc(N)nc(N)c1-c1ccc(Cl)c(NC(C)=O)c1
3. O=C(/C=C/c1ccccc1)CCc1c(O)c2ccccc2oc1=O
4. CCN(CC)CC1CO1 (centres undefined)

output:
1. -7.8
2. -3.6
3. -5.3
4. -12.1

---

Give measured growth inhibition for each item. Keep answers brief.
Experiment: NCI Yeast Anticancer Drug Screen. Data for the rad50 strain (AID 155);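 further: 0% = growth of vehicle-only cultures of the same strain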
Details: S. cerevisiae rad50 strain growth inhibition; at 50.0 µM; stronger effect = higher value
This is part of a sample that, as a whole, favours compounds with a hit. Of some 79,000 tested, about 15% had one in any assay. Calls of active or inactive are those of the source. Rule as the data show it: active = growth inhibition above about 70%; inactive = the rest.

Use these answered entries as a reference point.
[[record]]
molecule = "CC(=O)Nc1cccc(Cc2cccc(NC(C)=O)c2)c1"
assay_metric = "growth inhibition"
measured = "2.75% (inactive)"

[[record]]
molecule = "C(=N/Nc1ccccn1)/NN/C=N/Nc1ccccn1"
assay_metric = "growth inhibition"
measured = "-7.6% (inactive)"

[[record]]
molecule = "CN1CCC(=C2c3ccccc3CC(O)c3sccc32)CC1 (centres undefined)"
assay_metric = "growth inhibition"
measured = "24.2% (inactive)"


input: Bench note: what growth inhibition did CCOC(OCC)C(O)c1ccccc1 (centres undefined) show?
output: -17.2% (inactive)

Taken from PubChem BioAssay (NCI).
